# inhibition per entry
system.name: Tyrosine-protein kinase HCK (Homo sapiens) (UniProt P08631)
Sequence (P08631 whole entry, looked up): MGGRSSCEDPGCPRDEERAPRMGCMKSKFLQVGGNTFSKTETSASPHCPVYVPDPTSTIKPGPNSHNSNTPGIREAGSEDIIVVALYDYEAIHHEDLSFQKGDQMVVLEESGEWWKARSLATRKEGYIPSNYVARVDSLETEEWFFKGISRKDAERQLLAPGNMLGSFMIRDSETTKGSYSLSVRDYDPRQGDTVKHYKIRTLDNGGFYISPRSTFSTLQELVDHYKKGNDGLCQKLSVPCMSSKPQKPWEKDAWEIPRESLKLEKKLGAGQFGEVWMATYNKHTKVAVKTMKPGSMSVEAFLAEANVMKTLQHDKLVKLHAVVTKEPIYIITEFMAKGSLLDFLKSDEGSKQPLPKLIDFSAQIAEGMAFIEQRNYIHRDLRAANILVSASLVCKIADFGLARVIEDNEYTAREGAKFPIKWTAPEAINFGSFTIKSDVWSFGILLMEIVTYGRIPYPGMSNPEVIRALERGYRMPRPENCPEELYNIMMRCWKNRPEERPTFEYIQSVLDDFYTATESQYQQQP
assay.info: inhibitors of Nef-activated human Hck kinase, primary screen, biochemical, Z-Lyte FRET, 384-well, Hck-YEEI (AID 463187);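 also: 0% = DMSO with Hck plus Nef and 100% = Hck alone without Nef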
recorded.conditions: Recombinant Hck-YEEI plus Nef, Z-Lyte FRET kinase assay; at 20 µM; hits give high values
Out of some 220,000 compounds screened, about 1,500 (0.68%) were called active. Many of the other results were omitted from the sample, so actives are more common in it than they were.
value.kind: inhibition

- compound: "O=C(CN1CCN(c2ccc(O)cc2)CC1)Nc1cc(S(=O)(=O)N2CCOCC2)ccc1Cl"
  obs.value: "12.6% (inactive)"
- compound: "CCCCn1c(N)c(N(CC)C(=O)/C=C/c2ccco2)c(=O)[nH]c1=O"
  obs.value: "-7.95% (inactive)"
- compound: "O=[N+]([O-])c1cc(Cl)cc(/C=N/NC(=S)Nc2cc(S(=O)(=O)N3CCOCC3)ccc2Cl)c1O"
  obs.value: "68.6% (active)"
- compound: "Cc1cccn2c(=O)c3cc(C#N)c(=O)n(CCCN4CCOCC4)c3nc12"
  obs.value: "178% (active)"
- compound: "Cc1nnc(SCC(=O)NNC(=O)c2ccc(Cl)cc2)n1CC1CCCO1 (stereo unspecified)"
  obs.value: "22.1% (inactive)"
- compound: "N#C/C(=C/c1ccc(N2CCOCC2)o1)C(=O)N1CCOCC1"
  obs.value: "1.17% (inactive)"
- compound: "CCCN(CCC)c1ccc(C(O)c2nnc(-c3ccccc3)o2)cc1 (stereo unspecified)"
  obs.value: "-0.222% (inactive)"
- compound: "CCCc1nc2ccccc2c(C(=O)OCC(=O)c2ccc3c(c2)NC(=O)CO3)c1CC"
  obs.value: "-1.08% (inactive)"
- compound: "COc1ccc(Cl)cc1S(=O)(=O)N1CCC(O)(c2ccc(Cl)cc2)CC1"
  obs.value: "3.69% (inactive)"
- compound: "Cc1cccc2cc(CN(C(=O)c3cccs3)c3ccccc3)c(=O)[nH]c12"
  obs.value: "3.68% (inactive)"
- compound: "Cc1cccn2c(=O)c3cc(C(=O)N4COCC4(C)C)n(C)c3nc12"
  obs.value: "11.2% (inactive)"
- compound: "CCc1ccc(Nc2nnc(SCC(=O)c3ccc4c(c3)NC(=O)CO4)s2)cc1"
  obs.value: "105% (active)"
- compound: "O=C(CCSCCc1ccccn1)Nc1nccs1"
  obs.value: "7.74% (inactive)"
- compound: "Cc1ccc(-n2ncc3c(=O)n(-c4ccc(C)c(C)c4)c(-c4ccco4)nc32)cc1"
  obs.value: "-0.384% (inactive)"
- compound: "COc1cccc(Nc2nnc(SCC(=O)N3CC(=O)Nc4ccccc43)s2)c1"
  obs.value: "36.9% (inactive)"
- compound: "CCOc1ccc(CCNC(=O)C2=C(C)C(=O)OC23CCC(C)CC3)cc1OCC (stereo unspecified)"
  obs.value: "25.3% (inactive)"
- compound: "O=C1/C(=C/c2cccs2)CCC1C1CCCC1 (stereo unspecified)"
  obs.value: "26% (inactive)"
- compound: "NC(=O)C[C@@H]1NC(=O)CNC(=O)c2cc([N+](=O)[O-])cc(I)c2NCCC(C(N)=O)NC1=O (stereo partly specified)"
  obs.value: "-7.95% (inactive)"
- compound: "O=C(N/N=C/c1ccc([N+](=O)[O-])o1)c1cccc(S(=O)(=O)N2CCOCC2)c1"
  obs.value: "18.1% (inactive)"
- compound: "COC(=O)CCCC1=CC2=CC(=O)C(C)(OC(=O)c3cccs3)C(=O)C2=CN1CC1CC1 (stereo unspecified)"
  obs.value: "10.7% (inactive)"
- compound: "CCn1c(=N)c(S(=O)(=O)c2ccc(F)cc2)cc2c(=O)n3ccccc3nc21"
  obs.value: "11.1% (inactive)"

----------
system.name: Tyrosine-protein kinase HCK (Homo sapiens) (UniProt P08631)
assay.info: inhibitors of Nef-activated human Hck kinase, primary screen, biochemical, Z-Lyte FRET, 384-well, Hck-YEEI (AID 463187);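 also: 0% = DMSO with Hck plus Nef and 100% = Hck alone without Nef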
recorded.conditions: Recombinant Hck-YEEI plus Nef, Z-Lyte FRET kinase assay; at 20 µM
Among all 220,000 compounds or so, about 1,500 (0.68%) were called active.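 The calls were made as follows: active = Hck-Nef kinase inhibition above about 50% (limit read from the data); inactive = inhibition below that limit.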 The sample holds actives, similar compounds and a random draw of the others, so the mix is not that of the screen.
Outcome codes: active, inactive

- chemical.smiles: "COc1ccc(/C=C2/C(=O)OCc3cc(OC)c(OC)cc32)c(OC)c1"
  category: "inactive"
- chemical.smiles: "Cc1cc(-c2csc(N)n2)c(C)n1-c1ccccc1"
  category: "inactive"
- chemical.smiles: "CCOC(=O)COc1cc(OCC(=O)OCC)c2c(=O)cc(-c3ccccc3)oc2c1"
  category: "inactive"
- chemical.smiles: "CC(C)(C)NC(=O)COC(=O)c1cc(Br)ccc1Cl"
  category: "inactive"
- chemical.smiles: "O=C(CN1C(=O)/C(=C\\c2ccccc2F)SC1=S)Nc1nc2ccccc2s1"
  category: "inactive"
- chemical.smiles: "Cc1c(CCOC(=O)CC23CC4CC(CC(C)(C4)C2)C3)sc[n+]1Cc1ccc([N+](=O)[O-])cc1"
  category: "inactive"
- chemical.smiles: "CN(C)S(=O)(=O)c1cccc(-c2nn(-c3ccccc3)cc2/C=C2\\SC(=S)N(CC(=O)O)C2=O)c1"
  category: "active"
- chemical.smiles: "CC1=NN(/C(=N\\c2nnc(C)s2)Nc2ccccc2)[C@H](c2ccc(C)cc2)S1"
  category: "inactive"
- chemical.smiles: "O=C(COc1ccc([N+](=O)[O-])cc1)Nc1ccc(N2CCCC2)cc1"
  category: "inactive"
- chemical.smiles: "CC(=O)NC(=S)NNC(=O)c1ccc(Br)cc1"
  category: "inactive"

----------
system.name: Tyrosine-protein kinase HCK (Homo sapiens)
assay.info: inhibitors of Nef-activated human Hck kinase, primary screen, biochemical, Z-Lyte FRET, 384-well, Hck-YEEI (AID 463187);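 also: 0% = DMSO with Hck plus Nef and 100% = Hck alone without Nef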
recorded.conditions: Recombinant Hck-YEEI plus Nef, Z-Lyte FRET kinase assay; at 20 µM; hits give high values
About 1,500 (0.68%) of roughly 220,000 compounds were called active. Shown is part of a subset that was picked to be rich in actives.
# inhibition per entry

- compound: "Cc1ccc(CSc2nnc(-c3cnccn3)n2C)cc1"
  system.name: "Tyrosine-protein kinase HCK (Homo sapiens)"
  inhibition, %: 20.9
- compound: "COC(=O)COc1ccc2oc(=O)cc(C)c2c1"
  system.name: "Tyrosine-protein kinase HCK (Homo sapiens)"
  inhibition, %: 1.26
- compound: "COC(=O)CN1C(=S)N(c2ccccc2)C(=O)C1CC(=O)Nc1ccc(Cl)cc1 (stereo unspecified)"
  system.name: "Tyrosine-protein kinase HCK (Homo sapiens)"
  inhibition, %: 2.46
- compound: "CCS(=O)(=O)c1ccc2c(c1)N(S(=O)(=O)c1ccccc1)CC(C(=O)O)O2 (stereo unspecified)"
  system.name: "Tyrosine-protein kinase HCK (Homo sapiens)"
  inhibition, %: 1.06
- compound: "COc1ccccc1C(=O)Nn1c(-c2cccs2)nc2ccccc2c1=O"
  system.name: "Tyrosine-protein kinase HCK (Homo sapiens)"
  inhibition, %: 2.4
- compound: "O=[N+]([O-])C(=c1ccc2c(c1)N1C3=C(CCCC3)CC3CCCCC31N=2)[N+](=O)[O-] (stereo unspecified)"
  system.name: "Tyrosine-protein kinase HCK (Homo sapiens)"
  inhibition, %: 73
- compound: "CC(C)OC(=O)Cn1nc(C(F)(F)F)c2c1CCCC2"
  system.name: "Tyrosine-protein kinase HCK (Homo sapiens)"
  inhibition, %: 22.4
- compound: "CC(=O)Nc1ccc(OCCC[n+]2cccc(C(=O)[O-])c2)cc1"
  system.name: "Tyrosine-protein kinase HCK (Homo sapiens)"
  inhibition, %: 12
- compound: "COc1ccc(NC(=S)NCc2cccs2)c(OC)c1"
  system.name: "Tyrosine-protein kinase HCK (Homo sapiens)"
  inhibition, %: 0.854
- compound: "CC(C)Oc1ccc(C(=O)NC(C)(C)CO)cc1"
  system.name: "Tyrosine-protein kinase HCK (Homo sapiens)"
  inhibition, %: 4.72
- compound: "CCOC(=O)COc1cc(O)c2c(=O)cc(-c3ccccc3)oc2c1"
  system.name: "Tyrosine-protein kinase HCK (Homo sapiens)"
  inhibition, %: 20.1
